- System: Vero E6 infected with SARS-CoV-2
- measurementDescription: inhibition of SARS-CoV-2 cytopathic effect; higher = more antiviral protection, active = above 15
- assayContext: 833.33 nM; 48 h
I'd be grateful if you could share measured inhibition of SARS-CoV-2 cytopathic effect for these entries.
One number for each entry, in %.

# count of solved cases: 8
{"compound": "N#CCC(=O)NN [cyacetacide]", "displayUnit": "%", "dataValue": 6.6}
{"compound": "C[C@H]1O[C@@H](Oc2c(-c3cc(O)c(O)c(O)c3)oc3cc(O)cc(O)c3c2=O)[C@@H](O)[C@@H](O)[C@@H]1O", "displayUnit": "%", "dataValue": -1.02}
{"compound": "COCCc1ccc(OCC(O)CNC(C)C)cc1 (centres undefined)", "displayUnit": "%", "dataValue": -0.66}
{"compound": "C=CC(=O)N1CCC[C@@H](n2nc(-c3ccc(Oc4ccccc4)cc3)c3c(N)ncnc32)C1", "displayUnit": "%", "dataValue": -0.37}
{"compound": "Cc1n[nH]c(C)c1Cc1sc2c(c1C(=O)N1C[C@H](O)CO1)c(=O)n(C)c(=O)n2CC(C)C", "displayUnit": "%", "dataValue": 1.3}
{"compound": "Cn1c(N2CCCCS2(=O)=O)nc(C(=O)NCc2ccc(F)cc2)c(O)c1=O", "displayUnit": "%", "dataValue": -0.06}
{"compound": "O=C1C2CC=CCC2C(=O)N1SC(Cl)(Cl)Cl (centres undefined)", "displayUnit": "%", "dataValue": 4.29}
{"compound": "Cc1c(C)c2c(c(C)c1OC(=O)CCC(=O)O)CC[C@@](C)(CCC[C@H](C)CCC[C@H](C)CCCC(C)C)O2 [D-alpha-tocopheryl-succinate]", "displayUnit": "%", "dataValue": -5.36}

Please look up its inhibition of SARS-CoV-2 cytopathic effect: OCc1ccccc1O[C@@H]1O[C@H](CO)[C@@H](O)[C@H](O)[C@H]1O
2.27

* * *

- System: Vero E6 infected with SARS-CoV-2
- measurementDescription: inhibition of SARS-CoV-2 cytopathic effect; higher = more antiviral protection, active = above 15
- assayContext: 10000 nM; 48 h
Provide the recorded inhibition of SARS-CoV-2 cytopathic effect for the entries that follow.
One number for each entry, in %.

# example entries with known answers
{"compound": "Cc1cc(-n2c(=O)[nH]c(=O)n(C)c2=O)ccc1Oc1ccc(SC(F)(F)F)cc1", "dataValue": -0.06}
{"compound": "Clc1ccc(COC(Cn2ccnc2)c2ccc(Cl)cc2Cl)cc1 (centres undefined)", "dataValue": -1.91}
{"compound": "Cc1cc(-c2nc(C(=O)Nc3cn(C4CCOCC4)nc3C(N)=O)co2)ccn1", "dataValue": -5.6}
{"compound": "c1ccc2c(Cc3c[nH]c4ccccc34)c[nH]c2c1", "dataValue": 3.8}
{"compound": "CN1C(=O)N(c2cc(Cl)cc(Cl)c2)C(=O)[C@]12CN(Cc1cc(C(=O)O)cs1)C[C@H]2c1ccc(C#N)cc1", "dataValue": -0.22}

I'm hoping you can list inhibition of SARS-CoV-2 cytopathic effect for every compound here, please.
1. Nc1ncnc2c1ncn2[C@@H]1O[C@@H]2COP(=O)(O)O[C@H]2[C@H]1O
2. CC(C)(Cc1c[nH]c2ccc(Cl)cc12)NCCOc1ccccc1OCC1CC1

1: 0.34; 2: -19.4

Can you give me inhibition of SARS-CoV-2 cytopathic effect for all of these, one by one?
1. Cc1ccc(-c2ncc(Cl)cc2-c2ccc(S(C)(=O)=O)cc2)cn1
2. Nc1ccc(C(=O)O)c(O)c1 [aminosalicylate]

1. -1.11
2. 0.97

* * *

I'd appreciate it if you could supply SARS-CoV-2 infection rate values for the items below.
- Tested on: Vero E6 infected with SARS-CoV-2
- measurementDescription: SARS-CoV-2 infection rate relative to infected DMSO; higher = more infection, active = 60 or less
- assayContext: 24 h

Some solved cases for reference:
{"compound": "N#CN=C(NCCCCCCOc1ccc(Cl)cc1)Nc1ccncc1 (10 µM)", "dataValue": "96.5% (inactive)"}
{"compound": "Nc1cc(C(F)(F)F)c(-c2cc(N3CCOCC3)nc(N3CCOCC3)n2)cn1 [buparlisib] (10 µM)", "dataValue": "103% (inactive)"}
{"compound": "CCCCN1[C@@H]2CC[C@H]1C[C@@H](OC(c1ccc(F)cc1)c1ccc(F)cc1)C2 (0.833333 µM)", "dataValue": "86% (inactive)"}

We now examine a further compound.
Any idea what SARS-CoV-2 infection rate was measured for CN1CCN(Cc2ccc(Nc3ncc(Cl)c(Nc4ccccc4S(=O)(=O)N(C)C)n3)cc2)CC1 (10 µM) ?
120% (inactive)

* * *

- System: Vero E6 infected with SARS-CoV-2
- measurementDescription: inhibition of SARS-CoV-2 cytopathic effect; higher = more antiviral protection, active = above 15
- assayContext: 8.33 nM; 48 h
endpointLabel: inhibition of SARS-CoV-2 cytopathic effect

Would you please look over these solved cases?
{"compound": "Cc1cn(-c2cc(NC(=O)c3ccc(C)c(Nc4nccc(-c5cccnc5)n4)c3)cc(C(F)(F)F)c2)cn1 [nilotinib]", "dataValue": "3.56% (inactive)"}
{"compound": "CC(C)C[C@@H](N)C(=O)N[C@H]1C(=O)N[C@@H](CC(N)=O)C(=O)N[C@H]2C(=O)N[C@H]3C(=O)N[C@H](C(=O)N[C@H](C(=O)O)c4cc(O)cc(O)c4-c4cc3ccc4O)[C@H](O)c3ccc(c(Cl)c3)Oc3cc2cc(c3O[C@@H]2O[C@H](CO)[C@@H](O)[C@H](O)[C@H]2O[C@H]2C[C@](C)(N)[C@H](O)[C@H](C)O2)Oc2ccc(cc2Cl)[C@H]1O [norvancomycin]", "dataValue": "2.53% (inactive)"}
{"compound": "COc1ccc(NC(=O)c2ccc(-c3ccc(-c4noc(C)n4)cc3C)cc2)cc1N1CCN(C)CC1", "dataValue": "6.46% (inactive)"}
{"compound": "C[C@@H]1CN(CCCn2c3ccccc3c3ccccc32)C[C@H](C)N1 [rimcazole]", "dataValue": "-0.33% (inactive)"}

Now, please, on to the next compound.
# query: inhibition of SARS-CoV-2 cytopathic effect of entry CC1(C)O[C@H]2CC(=O)OC[C@]23[C@H]2CC[C@@]4(C)[C@H](c5ccoc5)OC(=O)[C@H]5O[C@]54[C@]2(C)C(=O)C[C@@H]13 [limonin]
-0.42% (inactive)

* * *

- Tested on: Vero E6 infected with SARS-CoV-2
- measurementDescription: inhibition of SARS-CoV-2 cytopathic effect; higher = more antiviral protection, active = above 15
- assayContext: 1 nM; 48 h
endpointLabel: inhibition of SARS-CoV-2 cytopathic effect (%)
Give bare numbers, in %.

Below: 8 molecules and their reported inhibition of SARS-CoV-2 cytopathic effect.
{"molecule": "O=c1cc[nH]c(=O)[nH]1 [uracil]", "displayUnit": "%", "dataValue": -0.48}
{"molecule": "O=C(CCCl)NCCc1ccccc1 [fenaclon]", "displayUnit": "%", "dataValue": 4.5}
{"molecule": "Cc1cc(C)c(S(=O)(=O)Nc2ccccc2C(F)(F)F)c(C)c1", "displayUnit": "%", "dataValue": 2.1}
{"molecule": "O=C(O)CCCCC(=O)O [adipic-acid]", "displayUnit": "%", "dataValue": -3.52}
{"molecule": "Cc1c(N)nc([C@H](CC(N)=O)NC[C@H](N)C(N)=O)nc1C(=O)N[C@H](C(=O)N[C@H](C)[C@@H](O)[C@H](C)C(=O)N[C@H](C(=O)NCCc1nc(-c2nc(C(=O)NCCC[S+](C)C)cs2)cs1)[C@@H](C)O)[C@@H](OC1OC(CO)C(O)C(O)C1OC1OC(CO)C(O)C(OC(N)=O)C1O)c1cnc[nH]1 (stereo partly specified) [bleomycin]", "displayUnit": "%", "dataValue": -3.91}
{"molecule": "CS(=O)(=O)OCCCCOS(C)(=O)=O [busulfan]", "displayUnit": "%", "dataValue": -2.94}
{"molecule": "NC[C@@](O)(c1ccc(Cl)cc1)c1ccc(-c2cn[nH]c2)cc1", "displayUnit": "%", "dataValue": -0.97}
{"molecule": "Cc1cc(O)c2c(c1)C(=O)c1cc(O)cc(O)c1C2=O [emodin]", "displayUnit": "%", "dataValue": -1.74}

Hi! Can you tell me inhibition of SARS-CoV-2 cytopathic effect for each of these molecules?
1. c1ccc(-c2nc(CN3CCN(c4ncccn4)CC3)c[nH]2)cc1
2. CCN1C[C@H](C)n2c(c(O)c3c(=O)n(Cc4ccc(F)c(Cl)c4)nc(C(=O)NC)c32)C1=O
3. Cn1cc(-c2ccc(F)c(C(F)(F)F)c2)nc1C1CCN(c2ncnc3[nH]ncc23)CC1

[-2.28, -0.8, 0.45]
